Record form. Attribute: relative viability. Fill in for each entry.
# Test system: COR-L 105
# test: relative viability (nuclei count vs DMSO), 5 days (fraction); higher = more cells survive
# experimentalConditions: first compound 0.4 µM

Identify relative viability associated with the compound C[C@@H]1CN(CC(=O)Nc2ccc3c(c2)Cc2cccc(-c4cc(=O)cc(N5CCOCC5)o4)c2S3)C[C@H](C)O1 + CS(=O)(=O)CCNCc1ccc(-c2ccc3ncnc(Nc4ccc(OCc5cccc(F)c5)c(Cl)c4)c3c2)o1 [Lapatinib] (partner 2 µM)
0.381

Specify measured relative viability for COc1cc(N2CCC(C(N)=O)CC2)ccc1Nc1nc(N)c(Cl)c(Nc2ccccc2S(=O)(=O)C(C)C)n1 [HG-5-88-01] + N=C(N)NC(=N)NCCc1ccccc1 [Phenformin] (partner 250 µM) .
0.47

Look up and report measured relative viability for this entry: Clc1ccc(Nc2nnc(Cc3ccncc3)c3ccccc23)cc1 [Vatalanib] + O=C(CCCCCCC(=O)Nc1ccccc1)NO [Vorinostat] (partner 1 µM)
0.829

* * *

# System: NCI-H2347
# test: relative viability (nuclei count vs DMSO), 5 days (fraction); higher = more cells survive
# experimentalConditions: first compound 0.08 µM
recordedMetric: relative viability
When you answer, write just the number.

Return the recorded relative viability value; entry: CCCCCCCCCCCC1=C(O)C(=O)C=C(O)C1=O [Embelin] + C[C@@H](Oc1cc(-c2cnn(C3CCNCC3)c2)cnc1N)c1c(Cl)ccc(F)c1Cl [Crizotinib] (partner 1 µM)
0.784

Give the value of relative viability reported for the following: CCCCCCCCCCCC1=C(O)C(=O)C=C(O)C1=O [Embelin] + CCNC(=O)c1noc(-c2cc(C(C)C)c(O)cc2O)c1-c1ccc(CN2CCOCC2)cc1 [Luminespib] (partner 0.01 µM)
0.73

Note relative viability for the molecule shown: CCCCCCCCCCCC1=C(O)C(=O)C=C(O)C1=O [Embelin] + NC(=O)Nc1cc(-c2cccc(F)c2)sc1C(=O)N[C@H]1CCCNC1 [AZD7762] (partner 0.2 µM)
0.841

Give the measured relative viability for CCCCCCCCCCCC1=C(O)C(=O)C=C(O)C1=O [Embelin] + C[C@]1(O)C[C@@H](c2nc(-c3ccc4ccc(-c5ccccc5)nc4c3)c3c(N)nccn32)C1 [Linsitinib] (partner 1 µM)
0.968

In one line, give reported relative viability of the entry CCCCCCCCCCCC1=C(O)C(=O)C=C(O)C1=O [Embelin] + COc1cccc2cc(-c3nc([C@H]4CC[C@H](C(=O)O)CC4)n4ncnc(N)c34)[nH]c12 [OSI-027] (partner 0.5 µM) .
0.428

Note relative viability for the molecule shown: CCCCCCCCCCCC1=C(O)C(=O)C=C(O)C1=O [Embelin] + N=C(N)NC(=N)NCCc1ccccc1 [Phenformin] (partner 250 µM)
0.308

Tell me its relative viability given CCCCCCCCCCCC1=C(O)C(=O)C=C(O)C1=O [Embelin] + CC(=O)c1c(C)c2cnc(Nc3ccc(N4CCNCC4)cn3)nc2n(C2CCCC2)c1=O [Palbociclib] (partner 0.5 µM) as the entry.
0.47

* * *

Exercise: for every item that follows, state its recorded relative viability.
# Tested on: NCI-H838
# test: relative viability (nuclei count vs DMSO), 5 days (fraction); higher = more cells survive
# experimentalConditions: first compound 0.03162 µM

Indicate its recorded relative viability; the compound in question is CC(C)Oc1cc(Nc2nc(N[C@@H](C)c3ccc(F)cn3)ncc2Cl)n[nH]1 [AZ23] + Cc1nc(Nc2ncc(C(=O)Nc3c(C)cccc3Cl)s2)cc(N2CCN(CCO)CC2)n1 [Dasatinib] (partner 0.075 µM)
0.317

Consider the compound CC(C)Oc1cc(Nc2nc(N[C@@H](C)c3ccc(F)cn3)ncc2Cl)n[nH]1 [AZ23] + O=C(c1cc(Cc2n[nH]c(=O)c3ccccc23)ccc1F)N1CCN(C(=O)C2CC2)CC1 [Olaparib] (partner 8 µM) and give its recorded relative viability.
0.964

Identify relative viability associated with the compound CC(C)Oc1cc(Nc2nc(N[C@@H](C)c3ccc(F)cn3)ncc2Cl)n[nH]1 [AZ23] + CC1(C)CCC(c2ccc(Cl)cc2)=C(CN2CCN(c3ccc(C(=O)NS(=O)(=O)c4ccc(N[C@H](CCN5CCOCC5)CSc5ccccc5)c(S(=O)(=O)C(F)(F)F)c4)cc3)CC2)C1 [Navitoclax] (partner 0.5 µM)
1.45

For the compound CC(C)Oc1cc(Nc2nc(N[C@@H](C)c3ccc(F)cn3)ncc2Cl)n[nH]1 [AZ23] + CC(C)C[C@H](NC(=O)[C@H](Cc1ccccc1)NC(=O)c1cnccn1)B(O)O [Bortezomib] (partner 0.002 µM) , report relative viability.
0.702

Please give the documented relative viability of CC(C)Oc1cc(Nc2nc(N[C@@H](C)c3ccc(F)cn3)ncc2Cl)n[nH]1 [AZ23] + Nc1nc2[nH]cc(CCc3ccc(C(=O)N[C@@H](CCC(=O)O)C(=O)O)cc3)c2c(=O)[nH]1 [Pemetrexed] (partner 0.2 µM)
0.27

Identify measured relative viability associated with CC(C)Oc1cc(Nc2nc(N[C@@H](C)c3ccc(F)cn3)ncc2Cl)n[nH]1 [AZ23] + NC(=O)Nc1cc(-c2cccc(F)c2)sc1C(=O)N[C@H]1CCCNC1 [AZD7762] (partner 0.2 µM)
1.05

* * *

# System: NCI-H1993
# test: relative viability (nuclei count vs DMSO), 5 days (fraction); higher = more cells survive
# experimentalConditions: first compound 0.8 µM
recordedMetric: relative viability
Write the number on its own, no unit after it.

Consider the compound CCCCCCCCCCCC1=C(O)C(=O)C=C(O)C1=O [Embelin] + O=C(c1cc(Cc2n[nH]c(=O)c3ccccc23)ccc1F)N1CCN(C(=O)C2CC2)CC1 [Olaparib] (partner 8 µM) . State its measured relative viability.
1.07

Report relative viability, nothing else, for this compound: CCCCCCCCCCCC1=C(O)C(=O)C=C(O)C1=O [Embelin] + C[C@@H](Oc1cc(-c2cnn(C3CCNCC3)c2)cnc1N)c1c(Cl)ccc(F)c1Cl [Crizotinib] (partner 1 µM)
0.844

Name the recorded relative viability of the compound listed here: CCCCCCCCCCCC1=C(O)C(=O)C=C(O)C1=O [Embelin] + CC(=O)c1c(C)c2cnc(Nc3ccc(N4CCNCC4)cn3)nc2n(C2CCCC2)c1=O [Palbociclib] (partner 0.5 µM)
0.674

Identify measured relative viability associated with CCCCCCCCCCCC1=C(O)C(=O)C=C(O)C1=O [Embelin] + COc1cccc2cc(-c3nc([C@H]4CC[C@H](C(=O)O)CC4)n4ncnc(N)c34)[nH]c12 [OSI-027] (partner 0.5 µM)
0.556

* * *

# System: LCLC-97TM1
# test: relative viability (nuclei count vs DMSO), 5 days (fraction); higher = more cells survive
# experimentalConditions: first compound 0.4 µM
recordedMetric: relative viability
Number, no unit, nothing else.

Retrieve relative viability measured for Clc1ccc(Nc2nnc(Cc3ccncc3)c3ccccc23)cc1 [Vatalanib] + N=C(N)NC(=N)NCCc1ccccc1 [Phenformin] (partner 250 µM) and print it.
0.46

// fetch relative viability given entry C[C@@H]1CN(CC(=O)Nc2ccc3c(c2)Cc2cccc(-c4cc(=O)cc(N5CCOCC5)o4)c2S3)C[C@H](C)O1 + Cc1cc(Nc2cc(N3CCN(C)CC3)nc(Sc3ccc(NC(=O)C4CC4)cc3)n2)n[nH]1 [Tozasertib] (partner 0.1 µM)
0.214

Give the reported value of relative viability for this record: C[C@@H]1CN(CC(=O)Nc2ccc3c(c2)Cc2cccc(-c4cc(=O)cc(N5CCOCC5)o4)c2S3)C[C@H](C)O1 + O=C(c1cc(Cc2n[nH]c(=O)c3ccccc23)ccc1F)N1CCN(C(=O)C2CC2)CC1 [Olaparib] (partner 8 µM)
0.462

Supply relative viability value. Item: Clc1ccc(Nc2nnc(Cc3ccncc3)c3ccccc23)cc1 [Vatalanib] + Cc1cc(Nc2cc(N3CCN(C)CC3)nc(Sc3ccc(NC(=O)C4CC4)cc3)n2)n[nH]1 [Tozasertib] (partner 0.1 µM)
0.237

* * *

# System: NCI-H1651
# test: relative viability (nuclei count vs DMSO), 5 days (fraction); higher = more cells survive
# experimentalConditions: first compound 1.265 µM
relative viability strictly less than 0.7 = t. Otherwise f.

Confirm or reject: relative viability of COc1cc(N2CCC(C(N)=O)CC2)ccc1Nc1nc(N)c(Cl)c(Nc2ccccc2S(=O)(=O)C(C)C)n1 [HG-5-88-01] + CC(C)C[C@H](NC(=O)[C@H](Cc1ccccc1)NC(=O)c1cnccn1)B(O)O [Bortezomib] (partner 0.002 µM) lies strictly below 0.7
f

hey, is relative viability for Clc1ccc(Nc2nnc(Cc3ccncc3)c3ccccc23)cc1 [Vatalanib] + Cc1nc(NC(=O)N2CCC[C@H]2C(N)=O)sc1-c1ccnc(C(C)(C)C(F)(F)F)c1 [Alpelisib] (partner 2 µM) lower than 0.7 or not?
f

Would you kindly verify if relative viability of COc1cc(N2CCC(C(N)=O)CC2)ccc1Nc1nc(N)c(Cl)c(Nc2ccccc2S(=O)(=O)C(C)C)n1 [HG-5-88-01] + Nc1ncn([C@H]2C[C@H](O)[C@@H](CO)O2)c(=O)n1 [Decitabine] (partner 2 µM) is strictly less than 0.7?
t

Quick check: relative viability of COc1cc(N2CCC(C(N)=O)CC2)ccc1Nc1nc(N)c(Cl)c(Nc2ccccc2S(=O)(=O)C(C)C)n1 [HG-5-88-01] + Cc1nc(NC(=O)N2CCC[C@H]2C(N)=O)sc1-c1ccnc(C(C)(C)C(F)(F)F)c1 [Alpelisib] (partner 2 µM) under 0.7?
f

Just wondering, is relative viability of COc1cc(N2CCC(C(N)=O)CC2)ccc1Nc1nc(N)c(Cl)c(Nc2ccccc2S(=O)(=O)C(C)C)n1 [HG-5-88-01] + CC(=O)Nc1cccc(-n2c(=O)n(C3CC3)c(=O)c3c(Nc4ccc(I)cc4F)n(C)c(=O)c(C)c32)c1 [Trametinib] (partner 0.02 µM) below 0.7?
f

Decide: relative viability of COc1cc(N2CCC(C(N)=O)CC2)ccc1Nc1nc(N)c(Cl)c(Nc2ccccc2S(=O)(=O)C(C)C)n1 [HG-5-88-01] + Cc1cc(Nc2cc(N3CCN(C)CC3)nc(Sc3ccc(NC(=O)C4CC4)cc3)n2)n[nH]1 [Tozasertib] (partner 0.1 µM) strictly below 0.7?
t

Record COc1cc(N2CCC(C(N)=O)CC2)ccc1Nc1nc(N)c(Cl)c(Nc2ccccc2S(=O)(=O)C(C)C)n1 [HG-5-88-01] + N=C(N)NC(=N)NCCc1ccccc1 [Phenformin] (partner 250 µM) : is its relative viability strictly below 0.7?
t

Report whether reported relative viability is lower than 0.7 (strictly) for Clc1ccc(Nc2nnc(Cc3ccncc3)c3ccccc23)cc1 [Vatalanib] + N=C(N)NC(=N)NCCc1ccccc1 [Phenformin] (partner 250 µM)
t

API: query returns whether the molecule falls strictly under 0.7 in relative viability. Query: COc1cc(N2CCC(C(N)=O)CC2)ccc1Nc1nc(N)c(Cl)c(Nc2ccccc2S(=O)(=O)C(C)C)n1 [HG-5-88-01] + O=C(c1cc(Cc2n[nH]c(=O)c3ccccc23)ccc1F)N1CCN(C(=O)C2CC2)CC1 [Olaparib] (partner 8 µM)
t
